Target: T1, somatostatin receptor 5 (UniProt P35346 1-364, limits assumed)
T1 construct: whole, on cells; Assayed as membrane preparation of CHO-K1 cells stably expressing the cloned receptor; also called SSTR5; somatostatin receptor subtype 5
T1 sequence (P35346 whole entry): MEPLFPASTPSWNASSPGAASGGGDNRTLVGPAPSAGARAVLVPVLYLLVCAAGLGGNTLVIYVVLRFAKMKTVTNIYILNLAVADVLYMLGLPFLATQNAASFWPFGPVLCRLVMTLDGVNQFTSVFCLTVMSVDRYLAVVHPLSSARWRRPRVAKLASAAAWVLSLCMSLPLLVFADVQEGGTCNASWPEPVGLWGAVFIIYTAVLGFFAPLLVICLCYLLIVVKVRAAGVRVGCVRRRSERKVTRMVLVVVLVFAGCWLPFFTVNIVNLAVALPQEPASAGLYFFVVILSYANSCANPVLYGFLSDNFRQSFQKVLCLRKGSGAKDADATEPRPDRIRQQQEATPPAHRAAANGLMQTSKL
Test: ratio of IC50 on SSTR2 to IC50 on SSTR5 (reference SSTR2), radioligand competition binding on CHO-K1 membranes
[ ]: non-standard residue; d: D form. Tpi = O=C(O)[C@@H]1Cc2c([nH]c3ccccc23)CN1; βAla(cyclopropyl) = beta-Ala(cyclopropyl); 2Nal = N[C@@H](Cc1ccc2ccccc2c1)C(=O)O; NMeF = CN[C@@H](Cc1ccccc1)C(=O)O; 4Pal = N[C@@H](Cc1ccncc1)C(=O)O
readout-kind: Ratio 2/5 in % (%)
Use % as the unit, but write only the number.

Some solved cases for reference:
[[record]]
binder = "cyclo([4Pal][dW]KTM[NMeF]) (SMILES CSCC[C@@H]1NC(=O)[C@H]([C@@H](C)O)NC(=O)[C@H](CCCCN)NC(=O)[C@@H](Cc2c[nH]c3ccccc23)NC(=O)[C@H](Cc2ccncc2)NC(=O)[C@H](Cc2ccccc2)N(C)C1=O, Cyclic hexapeptide; also called cyclo[(4)Pal-DTrp-Lys-Thr-Met-(NMe)Phe]) [P2281]"
readout_kind = "Ratio 2/5 in %"
value_reported = 0.36

[[record]]
binder = "cyclo(Y[dW]KTM[Tpi]) (SMILES CSCC[C@@H]1NC(=O)[C@H]([C@@H](C)O)NC(=O)[C@H](CCCCN)NC(=O)[C@@H](Cc2c[nH]c3ccccc23)NC(=O)[C@H](Cc2ccc(O)cc2)NC(=O)[C@@H]2Cc3c([nH]c4ccccc34)CN2C1=O, Cyclic hexapeptide; also called cyclo[Tyr-DTrp-Lys-Thr-Met-Tpi]) [P2274]"
readout_kind = "Ratio 2/5 in %"
value_reported = 6.1

[[record]]
binder = "cyclo(Y[dW]K[βAla(cyclopropyl)]M[NMeF]) (Cyclic hexapeptide; also called cyclo[Tyr-DTrp-Lys-BAla(cyclopropyl)-Met-(N-Me)Phe]) [P2300]"
readout_kind = "Ratio 2/5 in %"
value_reported = 0.96

[[record]]
binder = "cyclo([2Nal][dW]KTM[NMeF]) (SMILES CSCC[C@@H]1NC(=O)[C@H]([C@@H](C)O)NC(=O)[C@H](CCCCN)NC(=O)[C@@H](Cc2c[nH]c3ccccc23)NC(=O)[C@H](Cc2ccc3ccccc3c2)NC(=O)[C@H](Cc2ccccc2)N(C)C1=O, Cyclic hexapeptide; also called cyclo[2Nal-Dtrp-Lys-Thr-Met-(N-Me)Phe]) [P2279]"
readout_kind = "Ratio 2/5 in %"
value_reported = 37.2


// switching to the query binder
Prompt line: Report measured Ratio 2/5 in %; entry is cyclo(W[dW]KTM[NMeF]) (SMILES CSCC[C@@H]1NC(=O)[C@H]([C@@H](C)O)NC(=O)[C@H](CCCCN)NC(=O)[C@@H](Cc2c[nH]c3ccccc23)NC(=O)[C@H](Cc2c[nH]c3ccccc23)NC(=O)[C@H](Cc2ccccc2)N(C)C1=O, also called cyclo[Trp-DTrp-Lys-Thr-Met-(NMe)Phe]) [P2269]
Response line: 15.3
